# applied-conditions: human gut metagenome, 24 h, 2 µM; note: call rule not given here

>  <compound>
CSc1ccc2c(c1)C(N1CCN(C)CC1)Cc1ccccc1S2.O=C(O)/C=C\C(=O)O (stereo unspecified)

>  <Bacterial Biotransformation>
Compound metabolized

$$$$
>  <compound>
CC(NC(C)(C)C)C(=O)c1cccc(Cl)c1 (stereo unspecified) [BUPROPION]

>  <Bacterial Biotransformation>
Compound NOT metabolized

$$$$
>  <compound>
CC(N)C12CC3CC(CC(C3)C1)C2 (stereo unspecified) [RIMANTADINE]

>  <Bacterial Biotransformation>
Compound NOT metabolized

$$$$
>  <compound>
CCCC(C)(COC(N)=O)COC(=O)NC(C)C (stereo unspecified) [CARISOPRODOL]

>  <Bacterial Biotransformation>
Compound metabolized

$$$$
>  <compound>
O=C(O)c1cc(/N=N/c2ccc(S(=O)(=O)Nc3ccccn3)cc2)ccc1O [SULFASALAZINE]

>  <Bacterial Biotransformation>
Compound metabolized

$$$$
>  <compound>
COc1cc2nc(N3CCN(C(=O)C4CCCO4)CC3)nc(N)c2cc1OC (stereo unspecified) [TERAZOSIN]

>  <Bacterial Biotransformation>
Compound metabolized

$$$$
>  <compound>
C=C[C@H]1CN2CC[C@H]1C[C@H]2[C@H](O)c1ccnc2ccc(OC)cc12.C=C[C@H]1CN2CC[C@H]1C[C@H]2[C@H](O)c1ccnc2ccc(OC)cc12.O.O.O=S(=O)(O)O [QUININE SULFATE]

>  <Bacterial Biotransformation>
Compound metabolized

$$$$
>  <compound>
CC(C)NCC(O)COc1ccc(CC(N)=O)cc1 (stereo unspecified) [ATENOLOL]

>  <Bacterial Biotransformation>
Compound metabolized

$$$$
>  <compound>
N#Cc1ccc2c(c1)N(CCCN1CCC(O)CC1)c1ccccc1S2 [PERICIAZINE]

>  <Bacterial Biotransformation>
Compound metabolized

$$$$
>  <compound>
CC12CC3CC(C)(C1)CC(N)(C3)C2 [MEMANTINE]

>  <Bacterial Biotransformation>
Compound NOT metabolized

$$$$
>  <compound>
N#Cc1ccc2[nH]cc(CCCCN3CCN(c4ccc5oc(C(N)=O)cc5c4)CC3)c2c1 [VILAZODONE]

>  <Bacterial Biotransformation>
Compound metabolized

$$$$
>  <compound>
Nc1nc(N)nc(-c2cc(Cl)ccc2Cl)n1.O=C(O)/C=C\C(=O)O [IRSOGLADINE MALEATE]

>  <Bacterial Biotransformation>
Compound NOT metabolized

$$$$
>  <compound>
CCOC(=O)C1=C(C)NC(C)=C(C(=O)OC)C1c1cccc([N+](=O)[O-])c1 (stereo unspecified) [NITRENDIPINE]

>  <Bacterial Biotransformation>
Compound metabolized

$$$$
>  <compound>
Nc1nc(NC2CC2)c2ncn([C@H]3C=C[C@@H](CO)C3)c2n1.Nc1nc(NC2CC2)c2ncn([C@H]3C=C[C@@H](CO)C3)c2n1.O=S(=O)(O)O [ABACAVIR SULFATE]

>  <Bacterial Biotransformation>
Compound metabolized

$$$$
>  <compound>
CCOC(=O)[C@H](CCc1ccccc1)N[C@@H](C)C(=O)N1Cc2ccccc2C[C@H]1C(=O)O

>  <Bacterial Biotransformation>
Compound metabolized

$$$$
>  <compound>
COc1ccc(CN2CCNCC2)c(OC)c1OC.Cl.Cl [TRIMETAZIDINE DIHYDROCHLORIDE]

>  <Bacterial Biotransformation>
Compound NOT metabolized

$$$$
